ASSAY_PROCEDURE: NCI Yeast Anticancer Drug Screen. Data for the mec2-1 strain (AID 157)
MEASUREMENT_PARAMETERS: S. cerevisiae mec2-1 strain, at 5.0 µM (retest, dose inferred, filed as 0.5), active compounds read high
The panel holds about 79,000 compounds, 15% with a hit somewhere; the sample as a whole holds those more often.
REPORTED_METRIC: growth inhibition (%)
Express it in %; write the number only.

Record excerpt, results attached:
COMPOUND	UNIT_ABBREVIATION	growth inhibition
O=c1cccccc1O	%	4
O=C1CCCC/C1=C(\Br)I	%	31
COc1ccc(-c2cscc2N)cc1	%	-15
CCc1c(Nc2ccccc2C)[nH]c(N)nc1=S	%	-2
O=C1Sc2sc(=S)sc2SC1c1ccccc1 (centres undefined)	%	-1

[in] Which value of growth inhibition has been reported for `CC(C)(C)C1=NC(=S)SC2=NC(=O)C3(NN21)c1ccccc1-c1ccccc13` in the records?
[out] -6

[in] Which value of growth inhibition has been reported for `C=C(c1ccccc1)[N+](=O)[O-]` in the records?
[out] 63

[in] Which value of growth inhibition has been reported for `COc1ccc2nc3cc([N+](=O)[O-])ccc3c(NNc3ccc([N+](=O)[O-])cc3)c2c1` in the records?
[out] 2

[in] Which value of growth inhibition has been reported for O=C1CCCCCC1Cc1cc(O)c(CC2CCCCCC2=O)cc1O (centres undefined) in the records?
[out] 8

Values from PubChem BioAssay (NCI)
